Values compiled from PubChem BioAssay (NCI).

assay: NCI Yeast Anticancer Drug Screen. Data for the mlh1 rad18 strain (AID 175); settings: S. cerevisiae mlh1 rad18 strain growth inhibition; at 50.0 µM; stronger effect = higher value
The panel holds about 79,000 compounds, 15% with a hit somewhere; the sample as a whole holds those more often.
MEASURED PARAMETER: growth inhibition (%)
Please give a number only; it is taken to be in %.

>  <COMPOUND>
CCOC(=O)C1C(c2ccc(N(C)C)cc2)c2cc3c(cc2OC1(C)N1CCCC1)OCO3 (stereo not drawn)

>  <UNIT OF MEASUREMENT>
%

>  <DATA VALUE>
2.85

$$$$
>  <COMPOUND>
CCC(O)(c1ccc(OC)cc1)C(O)(CC)c1ccc(OC)cc1 (stereo not drawn)

>  <UNIT OF MEASUREMENT>
%

>  <DATA VALUE>
4.9

$$$$
>  <COMPOUND>
CCN(CC)C(=O)c1ccc(O)c(OC)c1

>  <UNIT OF MEASUREMENT>
%

>  <DATA VALUE>
-4.3

$$$$

Request: # lookup: growth inhibition of CC1CC(C)(C)OC(c2ccc(Cl)cc2)O1 (stereo not drawn)
Response: -9.1

Request: # lookup: growth inhibition of S=c1nc[nH]c2nc(Cl)[nH]c12
Response: 4

Request: # lookup: growth inhibition of Cn1cc(N=P(c2ccccc2)(c2ccccc2)c2ccccc2)c(=O)n(C)c1=O
Response: 5.55

Request: # lookup: growth inhibition of COC(=O)c1ccccc1CC1Cc2ccc3c(c2C1)CCC3 (stereo not drawn)
Response: 13.7

Request: # lookup: growth inhibition of CCCC(O)c1ccccc1 (stereo not drawn)
Response: 18.9
